tested on: AsPC1 (pancreas); assay: Anti-cell proliferation in tumor cells (14C-thymidine incorporation), AsPC1; format: cell-based; conditions: Homo sapiens, ASPC1, read-out: IC50 on cell proliferation, AsPC1
assay_readout: pIC50
// field semantics: pIC50 = negative decimal log of concentration (mol/L)

Challenge: Query: pIC50; subject: COc1cc2c(cc1OC)-c1n[nH]c(Nc3cccc(F)c3)c1C2 [Compound 14]
Response given: 6.23

###

biological target: PDGF-receptor beta enzyme comprising the tyrosine kinase domain (Homo sapiens, UniProt P09619); construct: from amino acid 545 to 1106 of GenBank Access NO: AAA36427; experiment: Inhibition of PDGF-receptor kinase activity (cell-free, PLC1 peptide, 33P Flashplate); format: biochemical; conditions: PDGF-R kinase activity; compound at 10 uM; read-out: Percent Inhibition @ 10 uM
Sequence (P09619 545-1106): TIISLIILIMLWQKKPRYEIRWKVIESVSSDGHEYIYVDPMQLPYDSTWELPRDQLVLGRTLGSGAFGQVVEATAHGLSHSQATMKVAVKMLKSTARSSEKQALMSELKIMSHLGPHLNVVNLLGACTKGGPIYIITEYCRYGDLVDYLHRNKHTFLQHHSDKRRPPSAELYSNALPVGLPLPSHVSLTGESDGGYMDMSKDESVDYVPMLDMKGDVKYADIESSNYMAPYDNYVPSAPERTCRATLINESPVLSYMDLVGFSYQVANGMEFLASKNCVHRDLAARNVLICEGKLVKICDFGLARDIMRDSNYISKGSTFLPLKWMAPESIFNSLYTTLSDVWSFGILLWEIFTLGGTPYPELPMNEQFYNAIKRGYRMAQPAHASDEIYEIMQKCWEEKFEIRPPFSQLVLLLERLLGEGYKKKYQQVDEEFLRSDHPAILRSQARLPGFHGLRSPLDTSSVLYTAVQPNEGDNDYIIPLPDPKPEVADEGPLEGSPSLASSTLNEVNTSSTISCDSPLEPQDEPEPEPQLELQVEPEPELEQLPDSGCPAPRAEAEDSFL
assay_readout: inhibition at 10 µM
State the result as a value with its unit after it.

>>> df
                                   molecule  result
0  CCOc1cc2c(cc1OCCCO)-c1n[nH]c(Nc3ccc(F)c(Cl)c3)c1C2   89.5%
1  COc1cc2c(cc1OC)-c1n[nH]c(Nc3ccccc3OC(F)(F)F)c1C2     79%
2  COc1cc2c(cc1F)Cc1c-2n[nH]c1Nc1cccc(Br)c1     92%
3  COc1cc2c(cc1OC)-c1n[nH]c(NCc3ccc(C)c(Cl)c3)c1C2     77%
4  COc1cc2c(cc1OC)-c1nn(C(=O)NCCOCCOCCO)c(Nc3cccc(F)c3)c1C2   79.5%
5  COc1cc2c(cc1OC)-c1n[nH]c(Nc3ccc4cn[nH]c4c3)c1C2     80%

Challenge: Query: inhibition at 10 µM; subject: CCOc1cc2c(cc1OCCCO)Cc1c-2n[nH]c1Nc1cccc(OC)c1
Response given: 100%

Challenge: Query: inhibition at 10 µM; subject: CCC1c2cc(OC)c(OC)cc2-c2n[nH]c(Nc3cccnc3Cl)c21 (single isomer, unassigned)
Response given: 78%

The values you see were collected from patent US7196110B2.
